Here we list molecules with their recorded Kd when tested on BRD4 (Homo sapiens).
Give bare numbers, in µM.

CCN1C(=O)C(C)(C)c2cc(=O)n(C)cc21 [Compound 14a]    12.7
CN1C(=O)C(C)(C)c2cc(=O)n(Cc3ccccc3)cc21 [Compound 17c]    101
CN1C(=O)C(C)(C)c2cc(=O)n(Cc3ccc(C(F)(F)F)cc3)cc21 [Compound 17m]    124

Request: # query: Kd | item Cc1ccc(Cn2cc3c(cc2=O)C(C)(C)C(=O)N3C)cc1 [Compound 17l] | system: BRD4 (Homo sapiens)
Result: 58

---

For each record, write down the corresponding pIC50.
# SYSTEM: GST-ATAD2 bromodomain / biotinylated acetylated histone H4 peptide (Homo sapiens, UniProt Q6PL18)
# Construct: 981-1108
# TEST DESCRIPTION: ATAD2-histone displacement HTRF assay
# CONDITION SET: HTRF format assay; highest concentration 1000 μM
One number for each entry, as −log10 of the molar value.

CN1C(=O)C(C)(C)c2cc(=O)n(Cc3ccc(Br)cc3)cc21 [Compound 17k]    3.63

Give pIC50 for each of the items listed below.
1. CN1C(=O)C(C)(C)c2cc(=O)n(Cc3ccc(C(=O)O)cc3)cc21 [Compound 17f]
2. CN1C(=O)C(C)(C)c2cc(=O)n(Cc3ccc(Cl)c(Cl)c3)cc21 [Compound 17n]
3. CN1C(=O)C(C)(C)c2cc(=O)n(Cc3cccc(C#N)c3)cc21 [Compound 17p]
4. CN1C(=O)C(C)(C)c2cc(=O)n(Cc3ccc(S(C)(=O)=O)cc3)cc21 [Compound 17i]

Result:
[3.27, 3.52, 3.18, 3.44]

Request: Param item = CCC1(CC)C(=O)N(C)c2cn(Cc3ccc(Cl)cc3)c(=O)cc21 [Compound 18a] ; retrieve measured pIC50.
Result: 3.79

---

# SYSTEM: ATAD2 bromodomain (Homo sapiens, UniProt Q6PL18)
# Construct: 981-1108; GST (N)
# Sequence (Q6PL18 981-1108): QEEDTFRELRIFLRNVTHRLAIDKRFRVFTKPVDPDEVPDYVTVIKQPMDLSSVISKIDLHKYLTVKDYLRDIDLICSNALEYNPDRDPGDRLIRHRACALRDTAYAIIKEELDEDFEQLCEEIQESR
# TEST DESCRIPTION: Surface plasmon resonance (SPR) direct binding to ATAD2
# CONDITION SET: SPR format assay; Kd above the top concentration projected by extrapolation (extrapolated Rmax from control compound)
What Kd was measured for each of the following?

Cn1cc2c(cc1=O)C(C)(C)C(=O)N2Cc1ccccc1 [Compound 14b]    > 2000 µM
CN1C(=O)C(C)(C)c2cc(=O)n(Cc3ccc(S(C)(=O)=O)cc3)cc21 [Compound 17i]    > 200 µM
CN1C(=O)C(C)(C)c2cc(=O)n(Cc3ccc(Cl)c(Cl)c3)cc21 [Compound 17n]    159 µM
CN1C(=O)C(C)(C)c2cc(=O)n(Cc3ccc(C#N)cc3)cc21 [Compound 17g]    > 200 µM
CN1C(=O)C(C)(Cc2ccccc2)c2cc(=O)n(Cc3ccc(Cl)cc3)cc21 (centres unmarked) [Compound 22a]    > 200 µM

Report Kd for every entry below.
1. CCCn1cc2c(cc1=O)C(C)(C)C(=O)N2C [Compound 17b]
2. CCN1C(=O)C(C)(C)c2cc(=O)n(C)cc21 [Compound 14a]
3. CN1C(=O)C(C)(Cc2ccccn2)c2cc(=O)n(Cc3ccc(Cl)cc3)cc21 (centres unmarked) [Compound 22b]
4. CN1C(=O)C(C)(C)c2cc(=O)n(Cc3ccccc3)cc21 [Compound 17c]
5. CN1C(=O)C(C)(CC2CC2)c2cc(=O)n(Cc3ccc(Cl)cc3)cc21 (centres unmarked) [Compound 22f]
6. CN1C(=O)C(C)(C)c2cc(=O)n(Cc3ccccc3C#N)cc21 [Compound 17o]
7. CN1C(=O)C(C)(C)c2cc(=O)n(Cc3cccc(C#N)c3)cc21 [Compound 17p]

Result:
["> 2000 µM", "> 200 µM", "> 200 µM", "> 200 µM", "113 µM", "> 2000 µM", "> 200 µM"]

For each of the molecules below, note its Kd.
1. CC1(C)C(=O)Nc2cn(Cc3ccccc3)c(=O)cc21 [Compound 15c]
2. CN1C(=O)C(C)(CC2(C)COC2)c2cc(=O)n(Cc3ccc(Cl)cc3)cc21 (centres unmarked) [Compound 22e]

Result:
1: > 200 µM; 2: > 200 µM

# batch size: 2; output Kd per entry
1. COC(=O)c1ccc(Cn2cc3c(cc2=O)C(C)(C)C(=O)N3C)cc1 [Compound 17e]
2. Cn1cc2c(cc1=O)C(C)(C)C(=O)N2CCN1CCCC1 [Compound 14d]

Result:
1: > 200 µM; 2: > 2000 µM
